- measured on: T1, IL-1β (UniProt P01584 117-269)
- T1 construct: Antigen of XPA23
- assay: Biacore, Fab periplasmic extract
fold difference in affinity against the original: recorded values
readout name: fold difference in affinity against the original

| binder | observed result |
| --- | --- |
| XPA23 heavy chain F33A (Fab, V domains shown, Fab, periplasmic extract; also called C5A F33A) VH: EVQLLESGGGLVQPGGSLRLSCAASGFTFSKYAMFWVRQAPGKGLEWVSVISPSGGMTRYADSVKGRFTISRDNSKNTLYLQMNSLRAEDTAVYYCARVGYGGNSDYWGQGTLVTVSS VL: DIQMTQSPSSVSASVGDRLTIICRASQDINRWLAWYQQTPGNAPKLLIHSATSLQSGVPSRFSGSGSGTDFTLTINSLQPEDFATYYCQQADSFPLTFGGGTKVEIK | 0.75 fold |
| XPA23 heavy chain F35A (Fab, V domains shown, Fab, periplasmic extract; also called C5A F35A) VH: EVQLLESGGGLVQPGGSLRLSCAASGFTFSKYFMAWVRQAPGKGLEWVSVISPSGGMTRYADSVKGRFTISRDNSKNTLYLQMNSLRAEDTAVYYCARVGYGGNSDYWGQGTLVTVSS VL: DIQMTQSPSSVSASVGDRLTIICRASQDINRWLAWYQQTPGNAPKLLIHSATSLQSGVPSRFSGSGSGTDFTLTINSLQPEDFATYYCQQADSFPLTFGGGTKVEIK | 0.07 fold |
| XPA23 heavy chain N104L (Fab, V domains shown, Fab, periplasmic extract; also called C5A N104L) VH: EVQLLESGGGLVQPGGSLRLSCAASGFTFSKYFMFWVRQAPGKGLEWVSVISPSGGMTRYADSVKGRFTISRDNSKNTLYLQMNSLRAEDTAVYYCARVGYGGLSDYWGQGTLVTVSS VL: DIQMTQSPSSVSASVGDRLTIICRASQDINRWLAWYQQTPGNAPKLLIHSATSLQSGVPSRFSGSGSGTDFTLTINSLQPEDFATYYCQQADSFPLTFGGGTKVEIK | 1.19 fold |
| XPA23 heavy chain F33L (Fab, V domains shown, Fab, periplasmic extract; also called C5A F33L) VH: EVQLLESGGGLVQPGGSLRLSCAASGFTFSKYLMFWVRQAPGKGLEWVSVISPSGGMTRYADSVKGRFTISRDNSKNTLYLQMNSLRAEDTAVYYCARVGYGGNSDYWGQGTLVTVSS VL: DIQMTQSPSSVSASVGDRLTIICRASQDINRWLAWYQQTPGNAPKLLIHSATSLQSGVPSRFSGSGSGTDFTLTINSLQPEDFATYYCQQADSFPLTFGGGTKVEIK | 0.88 fold |
| XPA23 heavy chain P53L (Fab, V domains shown, Fab, periplasmic extract; also called C5A P53L) VH: EVQLLESGGGLVQPGGSLRLSCAASGFTFSKYFMFWVRQAPGKGLEWVSVISLSGGMTRYADSVKGRFTISRDNSKNTLYLQMNSLRAEDTAVYYCARVGYGGNSDYWGQGTLVTVSS VL: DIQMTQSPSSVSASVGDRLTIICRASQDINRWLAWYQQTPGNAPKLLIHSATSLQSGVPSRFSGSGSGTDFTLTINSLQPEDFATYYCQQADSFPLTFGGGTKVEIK | 0.04 fold |
| XPA23 heavy chain V50A (Fab, V domains shown, Fab, periplasmic extract; also called C5A V50A) VH: EVQLLESGGGLVQPGGSLRLSCAASGFTFSKYFMFWVRQAPGKGLEWVSAISPSGGMTRYADSVKGRFTISRDNSKNTLYLQMNSLRAEDTAVYYCARVGYGGNSDYWGQGTLVTVSS VL: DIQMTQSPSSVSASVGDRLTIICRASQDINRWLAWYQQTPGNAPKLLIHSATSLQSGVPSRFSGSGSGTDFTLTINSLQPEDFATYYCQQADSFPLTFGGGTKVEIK | 0.09 fold |
| XPA23 heavy chain Y107V (Fab, V domains shown, Fab, periplasmic extract; also called C5A Y107V) VH: EVQLLESGGGLVQPGGSLRLSCAASGFTFSKYFMFWVRQAPGKGLEWVSVISPSGGMTRYADSVKGRFTISRDNSKNTLYLQMNSLRAEDTAVYYCARVGYGGNSDVWGQGTLVTVSS VL: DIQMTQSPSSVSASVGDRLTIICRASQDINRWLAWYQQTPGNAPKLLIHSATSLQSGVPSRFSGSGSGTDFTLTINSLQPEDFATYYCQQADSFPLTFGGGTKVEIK | 0.93 fold |
| XPA23 heavy chain V99A (Fab, V domains shown, Fab, periplasmic extract; also called C5A V99A) VH: EVQLLESGGGLVQPGGSLRLSCAASGFTFSKYFMFWVRQAPGKGLEWVSVISPSGGMTRYADSVKGRFTISRDNSKNTLYLQMNSLRAEDTAVYYCARAGYGGNSDYWGQGTLVTVSS VL: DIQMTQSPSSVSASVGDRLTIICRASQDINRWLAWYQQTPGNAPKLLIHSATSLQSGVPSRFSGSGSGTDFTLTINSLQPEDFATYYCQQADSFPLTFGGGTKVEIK | 0.03 fold |
| XPA23 heavy chain S54V (Fab, V domains shown, Fab, periplasmic extract; also called C5A S54V) VH: EVQLLESGGGLVQPGGSLRLSCAASGFTFSKYFMFWVRQAPGKGLEWVSVISPVGGMTRYADSVKGRFTISRDNSKNTLYLQMNSLRAEDTAVYYCARVGYGGNSDYWGQGTLVTVSS VL: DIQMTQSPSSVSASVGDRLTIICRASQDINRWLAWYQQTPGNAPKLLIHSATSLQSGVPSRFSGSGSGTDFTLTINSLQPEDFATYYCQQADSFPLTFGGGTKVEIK | 1 fold |
| XPA23 heavy chain Y107G (Fab, V domains shown, Fab, periplasmic extract; also called C5A Y107G) VH: EVQLLESGGGLVQPGGSLRLSCAASGFTFSKYFMFWVRQAPGKGLEWVSVISPSGGMTRYADSVKGRFTISRDNSKNTLYLQMNSLRAEDTAVYYCARVGYGGNSDGWGQGTLVTVSS VL: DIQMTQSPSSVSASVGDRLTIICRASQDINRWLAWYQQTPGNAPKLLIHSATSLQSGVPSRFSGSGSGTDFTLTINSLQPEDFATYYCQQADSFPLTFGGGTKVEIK | 0.1 fold |
